Overview of recorded IC50 for various compounds
test target: Avi-KRAS G12C (2-169) GTP/RAF1 RBD-3xFLAG (51-131) (Homo sapiens, UniProt P01116, G12C)
Construct: Avi-KRAS G12C (2-169)
Sequence (P01116 2-169 isoform P01116-2 G12C): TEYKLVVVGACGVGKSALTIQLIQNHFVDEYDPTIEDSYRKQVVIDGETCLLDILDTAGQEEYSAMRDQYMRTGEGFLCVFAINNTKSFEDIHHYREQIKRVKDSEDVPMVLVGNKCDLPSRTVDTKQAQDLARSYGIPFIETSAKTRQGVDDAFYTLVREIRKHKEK
measurement notes: Raf1-KRAS G12C-GTP disruption HTRF assay (Biological Example 3)
Type: binding
condition label: KRAS G12C, GTP-loaded

1) CCN(c1nc(OC[C@@]23CCCN2C[C@H](F)C3)nc2c(F)c(-c3ccc(F)c4sc(N)c(C#N)c34)c(C(F)(F)F)cc12)[C@H]1CCN(C(=O)O[C@H](C)C(F)(F)F)C1 (atropisomer, axis not shown) [Compound 850]    0.1 to 1 µM

// below: IC50 requested for another compound
Value of IC50 reported for the compound CCN(c1nc(OC[C@@]23CCCN2C[C@H](F)C3)nc2c(F)c(-c3ccc(F)c4sc(N)c(C#N)c34)c(C(F)(F)F)cc12)[C@H]1CCN(C(=O)OC)[C@@H]1COC (atropisomer, axis not shown) [Compound 923] is 1 to 10 µM

* * *

test target: Avi-KRAS G12D (2-169) GTP/RAF1 RBD-3xFLAG (51-131) (Homo sapiens, UniProt P01116, G12D)
Construct: Avi-KRAS G12D (2-169)
Sequence (P01116 2-169 isoform P01116-2 G12D): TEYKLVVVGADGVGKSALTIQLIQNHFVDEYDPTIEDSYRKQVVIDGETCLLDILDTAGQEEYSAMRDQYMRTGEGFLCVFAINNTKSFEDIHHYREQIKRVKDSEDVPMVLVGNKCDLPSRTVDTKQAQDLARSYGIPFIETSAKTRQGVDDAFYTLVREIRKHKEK
measurement notes: Raf1-KRAS G12D-GTP disruption HTRF assay (Biological Example 3)
Assay type: binding
condition label: KRAS G12D, GTP-loaded
quantity name: IC50

Worked examples, 4 molecules total:
1. CCN(c1nc(OC[C@@]23CCCN2C[C@H](F)C3)nc2c(F)c(-c3ccc(F)c4sc(N)c(C#N)c34)c(C(F)(F)F)cc12)[C@H]1CCN(C(=O)C2COC2)[C@@H]1C (atropisomer, axis not shown)    ≤ 0.1 µM
2. CCN(c1nc(OC[C@@]23CCCN2C[C@H](F)C3)nc2c(F)c(-c3ccc(F)c4sc(N)c(C#N)c34)c(C(F)(F)F)cc12)[C@H]1C[C@@H](C(=O)N(C)C)C1 (atropisomer, axis not shown)    0.1 to 1 µM
3. C[C@H](c1cccnc1)N(C)c1nc(OC[C@@]23CCCN2C[C@H](F)C3)nc2c(F)c(-c3ccc(F)c4sc(N)c(C#N)c34)c(C(F)(F)F)cc12 (atropisomer, axis not shown; (aS))    1 to 10 µM
4. CN(c1nc(OC[C@@]23CCCN2C[C@H](F)C3)nc2c(F)c(-c3ccc(F)c4sc(N)c(C#N)c34)c(C(F)(F)F)cc12)[C@H]1CCCc2ccncc21 (atropisomer, axis not shown)    > 10 µM

// below: IC50 requested for another molecule
Value of IC50 reported for the molecule N#Cc1c(N)sc2c(F)ccc(-c3c(C(F)(F)F)cc4c(N5CCn6nc(C(=O)N7CCOCC7)cc6C5)nc(OCC56CCCN5CC(F)C6)nc4c3F)c12 (centres unmarked) is 0.1 to 1 µM

* * *

test target: Avi-KRAS G12D (2-169) GTP/RAF1 RBD-3xFLAG (51-131) (Homo sapiens, UniProt P01116, G12D)
Construct: Avi-KRAS G12D (2-169)
measurement notes: Raf1-KRAS G12D-GTP disruption HTRF assay (Biological Example 3)
Type: binding
condition label: KRAS G12D, GTP-loaded
quantity name: IC50

1. CCN(c1nc(OC[C@@]23CCCN2C[C@H](F)C3)nc2c(F)c(-c3ccc(F)c4sc(N)c(C#N)c34)c(C(F)(F)F)cc12)[C@H]1C[C@H]2[C@@H](C)N(C)C(=O)N2C1 (atropisomer, axis not shown)    100 to 1000 nM

// below: IC50 requested for another compound
Value of IC50 reported for the compound CCN(c1nc(OC[C@@]23CCCN2C[C@H](F)C3)nc2c(F)c(-c3ccc(F)c4sc(N)c(C#N)c34)c(C(F)(F)F)cc12)[C@H]1C[C@H]2CN(C3COC3)C(=O)N2C1 (atropisomer, axis not shown) is 100 to 1000 nM

* * *

test target: Avi-KRAS G12D (1-169) GppNHp/RAF1 RBD-3xFLAG (52-151) (Homo sapiens, UniProt P01116, G12D)
Construct: Avi-KRAS G12D (1-169)
Sequence (P01116 1-169 isoform P01116-2 G12D): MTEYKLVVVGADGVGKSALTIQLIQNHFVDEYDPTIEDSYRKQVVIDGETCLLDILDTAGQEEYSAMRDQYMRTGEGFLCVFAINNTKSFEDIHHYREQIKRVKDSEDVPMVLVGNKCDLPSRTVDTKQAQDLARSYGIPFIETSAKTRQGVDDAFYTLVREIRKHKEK
measurement notes: Raf1-KRAS G12D-GppNHP disruption HTRF assay (Biological Example 1)
Assay type: binding
condition label: KRAS G12D-GppNHp/RAF1 RBD HTRF
quantity name: IC50

Worked examples, 6 compounds total:
1. N#Cc1c(N)sc2c(F)ccc(-c3c(C(F)(F)F)cc4c(N5C[C@@H]6C[C@H]5CS6(=O)=O)nc(OC[C@@]56CCCN5C[C@H](F)C6)nc4c3F)c12 [Compound 319]    100 to 1000 nM
2. CCN(c1nc(OC[C@@]23CCCN2C[C@H](F)C3)nc2c(F)c(-c3ccc(F)c4sc(N)c(C#N)c34)c(C(F)(F)F)cc12)[C@H]1CCN(C(=O)c2ccno2)C1 (atropisomer, axis not shown) [Compound 552]    < 100 nM
3. CN(C)C(=O)c1nc2n(n1)CCN(c1nc(OC[C@@]34CCCN3C[C@H](F)C4)nc3c(F)c(-c4ccc(F)c5sc(N)c(C#N)c45)c(C(F)(F)F)cc13)C2 [Compound 356]    < 100 nM
4. CC(=O)N1C[C@H](O)[C@@H](N(C)c2nc(OC[C@@]34CCCN3C[C@H](F)C4)nc3c(F)c(-c4ccc(F)c5sc(N)c(C#N)c45)c(C(F)(F)F)cc23)C1 [Compound 347]    < 100 nM
5. C[C@@H]1[C@H](N(C)c2nc(OC[C@@]34CCCN3C[C@H](F)C4)nc3c(F)c(-c4ccc(F)c5sc(N)c(C#N)c45)c(C(F)(F)F)cc23)CCN1C(=O)C1CC1 (atropisomer, axis not shown) [Compound 333]    < 100 nM
6. CN(c1nc(OC[C@@]23CCCN2C[C@H](F)C3)nc2c(F)c(-c3ccc(F)c4sc(N)c(C#N)c34)c(C(F)(F)F)cc12)[C@@H]1CC(=O)N(Cc2ccccc2)C1 [Compound 452]    100 to 1000 nM

Value of IC50 reported for the compound CCC(=O)N1CC[C@H](N(CC)c2nc(OC[C@@]34CCCN3C[C@H](F)C4)nc3c(F)c(-c4ccc(F)c5sc(N)c(C#N)c45)c(C(F)(F)F)cc23)C1 [Compound 349] is < 100 nM

Value of IC50 reported for the compound CCN(c1nc(OC[C@@]23CCCN2C[C@H](F)C3)nc2c(F)c(-c3ccc(F)c4sc(N)c(C#N)c34)c(C(F)(F)F)cc12)[C@@H]1C[C@H](C)N(C(=O)N(C)C)C1 (atropisomer, axis not shown) [Compound 545] is 100 to 1000 nM

Value of IC50 reported for the compound C[C@@H]1[C@H](N(C)c2nc(OC[C@]34C[C@@H](F)CN3CC3(CC3)C4)nc3c(F)c(-c4ccc(F)c5sc(N)c(C#N)c45)c(C(F)(F)F)cc23)CCN1C(=O)C1CC1 [Compound 564] is 100 to 1000 nM

Value of IC50 reported for the compound CCN(c1nc(OC[C@@]23CCCN2C[C@H](F)C3)nc2c(F)c(-c3ccc(F)c4sc(N)c(C#N)c34)c(C(F)(F)F)cc12)[C@@H]1CN(C(=O)C(C)C)C[C@@H]1F [Compound 475] is 100 to 1000 nM

* * *

test target: Avi-KRAS G12V (1-169) GppNHp/RAF1 RBD-3xFLAG (52-151) (Homo sapiens, UniProt P01116, G12V)
Construct: Avi-KRAS G12V (1-169)
Sequence (P01116 1-169 isoform P01116-2 G12V): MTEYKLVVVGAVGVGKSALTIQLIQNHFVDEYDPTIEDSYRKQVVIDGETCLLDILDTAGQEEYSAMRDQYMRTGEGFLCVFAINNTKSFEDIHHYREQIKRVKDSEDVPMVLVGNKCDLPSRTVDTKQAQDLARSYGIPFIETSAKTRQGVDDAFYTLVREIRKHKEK
measurement notes: Raf1-KRAS G12V-GppNHP disruption HTRF assay (Biological Example 1)
Format: binding
condition label: KRAS G12V, GppNHp-loaded; class symbols
Description: A protein:protein interaction (PPI) Homogeneous Time Resolved Fluorescence (HTRF) assay was used to determine the effectiveness of compounds of the present disclosure in disrupting KRAS protein and effector RAF1 binding. The assay buffer included: 50 mM Tris pH 7.5, 100 mM NaCl, 5 mM MgCl2, 0.1% BSA, 0.01% Tween, and 10% DMSO. The bead buffer included: 50 mM Tris pH 7.5, and 0.01% Tween 20. […] Data was reported as percentage of activity, with DMSO as 100%. Data was plotted and analyzed using Prism 8.
pIC50: −log10 of the molar value.
quantity name: pIC50

Worked examples, 4 compounds total:
1) CCN(c1nc(OC[C@@]23CCCN2C[C@H](F)C3)nc2c(F)c(-c3ccc(F)c4sc(N)c(C#N)c34)c(C(F)(F)F)cc12)[C@H]1CCN(C(=O)[C@H](C)OC)[C@@H]1C (atropisomer, axis not shown) [Compound 781]    6.00 to 7.00
2) CCN(c1nc(OC[C@@]23CCCN2C[C@H](F)C3)nc2c(F)c(-c3ccc(F)c4sc(N)c(C#N)c34)c(C(F)(F)F)cc12)[C@H]1CCN(C(=O)c2cnco2)C1 (atropisomer, axis not shown) [Compound 708]    > 7.00
3) CCN(c1nc(OC[C@@H]2C[C@@H](OC)CN2C)nc2c(F)c(-c3ccc(F)c4sc(N)c(C#N)c34)c(C(F)(F)F)cc12)[C@H]1CCN(C(=O)C(C)C)C1 [Compound 706]    6.00 to 7.00
4) CCN(CC)C(=O)c1cc2n(n1)CCN(c1nc(OCC34CCCN3CC(F)C4)nc3c(F)c(-c4ccc(F)c5sc(N)c(C#N)c45)c(C(F)(F)F)cc13)C2 (centres unmarked) [Compound 645]    6.00 to 7.00

// below: pIC50 requested for another compound
Value of pIC50 reported for the compound CN(C)C(=O)c1nn2c(c1C1CC1)CN(c1nc(OCC34CCCN3CC(F)C4)nc3c(F)c(-c4ccc(F)c5sc(N)c(C#N)c45)c(C(F)(F)F)cc13)CC2 (centres unmarked) [Compound 738] is 6.00 to 7.00

Reference source: patent US20260042764A1
